In this section, each of the compounds is paired with its reported growth inhibition.
- methodDescription: NCI Yeast Anticancer Drug Screen. Data for the mlh1 rad18 strain (AID 175)
- protocolConditions: S. cerevisiae mlh1 rad18 strain growth inhibition; at 5.0 µM (retest, dose inferred, filed as 0.5); hits give high values
About 79,000 compounds went through this panel and 15% of them were active in at least one assay; those are over-represented in the sample as a whole.
experimentalEndpoint: growth inhibition (%)

[
  {
    "compound": "N#CC1CCC(c2ccccc2)(c2ccccc2)C1=O (stereo unspecified)",
    "experimentalEndpoint": "growth inhibition",
    "unitSymbol": "%",
    "reportedMeasurement": -5
  },
  {
    "compound": "O=[N+]([O-])c1ccc2nc(-c3ccc(Cl)cc3)[nH]c2c1",
    "experimentalEndpoint": "growth inhibition",
    "unitSymbol": "%",
    "reportedMeasurement": -15
  },
  {
    "compound": "Cc1[nH]c2c(C)c3c([nH]c4ccc(Cl)cc43)c(C)c2c(=O)c1C",
    "experimentalEndpoint": "growth inhibition",
    "unitSymbol": "%",
    "reportedMeasurement": -19
  },
  {
    "compound": "Nc1ccc(O)c2c1C(=O)c1ccccc1C2O (stereo unspecified)",
    "experimentalEndpoint": "growth inhibition",
    "unitSymbol": "%",
    "reportedMeasurement": 28
  },
  {
    "compound": "O=C1CSC(=S)N1Cc1ccccc1Cl",
    "experimentalEndpoint": "growth inhibition",
    "unitSymbol": "%",
    "reportedMeasurement": 11
  },
  {
    "compound": "COc1ccc(/C=C(\\C(=O)c2ccc(O)cc2)c2ccccc2)cc1OC",
    "experimentalEndpoint": "growth inhibition",
    "unitSymbol": "%",
    "reportedMeasurement": 0
  },
  {
    "compound": "COc1cc2c(c(-c3cn(C)c4ccccc34)c1OC)OCO2",
    "experimentalEndpoint": "growth inhibition",
    "unitSymbol": "%",
    "reportedMeasurement": 0
  },
  {
    "compound": "Oc1[nH]c2ccccc2c1N=NC(=S)NCc1ccccn1",
    "experimentalEndpoint": "growth inhibition",
    "unitSymbol": "%",
    "reportedMeasurement": 26
  },
  {
    "compound": "COC12C=CC(CC1)c1c2c(O)c2ncccc2c1O (stereo unspecified)",
    "experimentalEndpoint": "growth inhibition",
    "unitSymbol": "%",
    "reportedMeasurement": -6
  },
  {
    "compound": "CC(O)CCCOC(c1ccccc1)(c1ccccc1)c1ccccc1 (stereo unspecified)",
    "experimentalEndpoint": "growth inhibition",
    "unitSymbol": "%",
    "reportedMeasurement": 19
  },
  {
    "compound": "CCOC(=O)C[P+](c1ccc(C)cc1)(c1ccc(C)cc1)c1ccc(C)cc1",
    "experimentalEndpoint": "growth inhibition",
    "unitSymbol": "%",
    "reportedMeasurement": 6
  },
  {
    "compound": "COc1ccccc1NC(c1ccccc1)c1ccc2cccnc2c1O (stereo unspecified)",
    "experimentalEndpoint": "growth inhibition",
    "unitSymbol": "%",
    "reportedMeasurement": -23
  },
  {
    "compound": "CC(=O)Oc1c([N+](=O)[O-])cc(-c2ccccc2)cc1[N+](=O)[O-]",
    "experimentalEndpoint": "growth inhibition",
    "unitSymbol": "%",
    "reportedMeasurement": 6
  },
  {
    "compound": "CS(=O)(=O)Nc1ccc(Nc2c3ccccc3nc3ccccc23)cc1",
    "experimentalEndpoint": "growth inhibition",
    "unitSymbol": "%",
    "reportedMeasurement": 1
  },
  {
    "compound": "CC(C(=O)c1ccc2cc(Br)c3ccccc3c2c1)N(C)C (stereo unspecified)",
    "experimentalEndpoint": "growth inhibition",
    "unitSymbol": "%",
    "reportedMeasurement": 5
  },
  {
    "compound": "Cc1n[n+]([O-])c(C)cc1[N+](=O)[O-]",
    "experimentalEndpoint": "growth inhibition",
    "unitSymbol": "%",
    "reportedMeasurement": 58
  },
  {
    "compound": "N#CC1CCCC(Cc2ccccc2)(c2ccccc2)C1=O (stereo unspecified)",
    "experimentalEndpoint": "growth inhibition",
    "unitSymbol": "%",
    "reportedMeasurement": -6
  },
  {
    "compound": "O=C1CNC(=O)c2cc(N=Cc3cc(Br)ccc3O)ccc2N1",
    "experimentalEndpoint": "growth inhibition",
    "unitSymbol": "%",
    "reportedMeasurement": 12
  },
  {
    "compound": "COC(=O)c1nc(=S)[nH]c(C(=O)OC)c1C(=O)c1c(C)[nH]c2ccccc12",
    "experimentalEndpoint": "growth inhibition",
    "unitSymbol": "%",
    "reportedMeasurement": -7
  },
  {
    "compound": "Brc1c2nc3ccccc3nc2n2ccc3ccccc3c12",
    "experimentalEndpoint": "growth inhibition",
    "unitSymbol": "%",
    "reportedMeasurement": -38
  },
  {
    "compound": "O=C1C=CC(=O)c2c1cc1ccccc1c2O",
    "experimentalEndpoint": "growth inhibition",
    "unitSymbol": "%",
    "reportedMeasurement": 19
  }
]
